The reported measurements were obtained from patent US8247211B2.

system: Enterococcus sp.; assay: In vitro antibacterial evaluation: minimum inhibitory concentration (MIC), broth dilution method; assay type: cell-based; conditions: broth dilution, inoculum 5×10^5 CFU/mL, 18 hours at 35° C.
Measurement Label: MIC Enterococcus faecium (GC 4556)

1) N=C1NCC(C(O)C2NC(=O)C(Cc3ccc(OC4OC(CO)C(OC5OC6COC(c7ccccc7)OC6C(O)C5O)C(O)C4O)cc3)NC(=O)C(CC3CCCCC3)NC(=O)CNC(=O)C(CO)NC(=O)C(C(O)C3CNC(=N)N3C3OC(CO)C(O)C(O)C3O)NC2=O)N1 (stereo not shown) [Example 199] :: 4 µg/mL
2) Cc1ccc(Oc2cccc(C3OCC4OC(OC5C(CO)OC(Oc6ccc(CC7NC(=O)C(C(C)c8ccccc8)NC(=O)CNC(=O)C(CO)NC(=O)C(C(O)C8CNC(=N)N8C8OC(CO)C(O)C(O)C8O)NC(=O)C(C(O)C8CNC(=N)N8)NC7=O)cc6I)C(O)C5O)C(O)C(O)C4O3)c2)cc1 (stereo not shown) [Example 197] :: >64 µg/mL
3) CC(C1CCCCC1)C1NC(=O)CNC(=O)C(CO)NC(=O)C(C(O)C2CNC(=N)N2C2OC(CO)C(O)C(O)C2O)NC(=O)C(C(O)C2CNC(=N)N2)NC(=O)C(Cc2ccc(OC3OC(CO)C(OC4OC5COC6(OC5C(O)C4O)C4CC5CC(C4)CC6C5)C(O)C3O)cc2)NC1=O (stereo not shown) [Example 221] :: 2 µg/mL
4) CC(c1ccc(Cl)cc1)C1NC(=O)CNC(=O)C(CO)NC(=O)C(C(O)C2CNC(=N)N2C2OC(CO)C(O)C(O)C2O)NC(=O)C(C(O)C2CNC(=N)N2)NC(=O)C(Cc2ccc(OC3OC(CO)C(OC4OC5COC(c6ccccc6)OC5C(O)C4O)C(O)C3O)cc2)NC1=O (stereo not shown) [Example 195] :: 0.5 µg/mL
5) CC(c1ccccc1)C1NC(=O)CNC(=O)C(CO)NC(=O)C(C(O)C2CNC(=N)N2C2OC(CO)C(O)C(O)C2O)NC(=O)C(C(O)C2CNC(=N)N2)NC(=O)C(Cc2ccc(OC3OC(CO)C(OC4OC5COC6(CCCCC6(C)C)OC5C(O)C4O)C(O)C3O)cc2)NC1=O (stereo not shown) [Example 205] :: 2 µg/mL
6) CC(c1ccccc1)C1NC(=O)CNC(=O)C(CO)NC(=O)C(C(O)C2CN(c3nc4ccccc4o3)C(=N)N2C2OC(CO)C(O)C(O)C2O)NC(=O)C(C(O)C2CNC(=Nc3nc4ccccc4o3)N2)NC(=O)C(Cc2ccc(OC3OC(CO)C(OC4OC5COC6(OC5C(O)C4O)C4CC5CC(C4)CC6C5)C(O)C3O)cc2)NC1=O (stereo not shown) [Example 227] :: 64 µg/mL
7) CC(c1ccccc1)C1NC(=O)CNC(=O)C(CO)NC(=O)C(C(O)C2CNC(=N)N2C2OC(CO)C(O)C(O)C2O)NC(=O)C(C(O)C2CNC(=N)N2)NC(=O)C(Cc2ccc(OC3OC(CO)C(OC4OC(CO)C(O)C5OC6(CCCCCCCCCCCC6)OC45)C(O)C3O)cc2)NC1=O (stereo not shown) [Example 210a] :: 8 µg/mL
8) COc1ccc(COCC2OC(OC3C(CO)OC(Oc4ccc(CC5NC(=O)C(C(C)c6ccccc6)NC(=O)CNC(=O)C(CO)NC(=O)C(C(O)C6CNC(=N)N6C6OC(CO)C(O)C(O)C6O)NC(=O)C(C(O)C6CNC(=N)N6)NC5=O)cc4)C(O)C3O)C(O)C(O)C2O)cc1 (stereo not shown) [Example 232] :: 32 µg/mL
9) CC(c1ccccc1)C1NC(=O)CNC(=O)C(CO)NC(=O)C(C(O)C2CNC(=N)N2C2OC(CO)C(O)C(O)C2O)NC(=O)C(C(O)C2CNC(=N)N2)NC(=O)C(Cc2ccc(OC3OC(CO)C(OC4OC5COC6(CC7CCC6(C)C7(C)C)OC5C(O)C4O)C(O)C3O)cc2)NC1=O (stereo not shown) [Example 215] :: 1 µg/mL
10) CCCC(C)C1OCC2OC(OC3C(CO)OC(Oc4ccc(CC5NC(=O)C(C(C)c6ccc(Cl)cc6)NC(=O)CNC(=O)C(CO)NC(=O)C(C(O)C6CNC(=N)N6C6OC(CO)C(O)C(O)C6O)NC(=O)C(C(O)C6CNC(=N)N6)NC5=O)cc4)C(O)C3O)C(O)C(O)C2O1 (stereo not shown) [Example 194] :: 1 µg/mL
11) CC(c1ccccc1)C1NC(=O)CNC(=O)C(CO)NC(=O)C(C(O)C2CNC(=N)N2C2OC(CO)C(O)C(O)C2O)NC(=O)C(C(O)C2CNC(=N)N2)NC(=O)C(Cc2ccc(OC3OC(CO)C(OC4OC(CO)C(O)C5OC(c6ccc(-c7ccsc7)cc6)OC45)C(O)C3O)cc2)NC1=O (stereo not shown) [Example 164a] :: 16 µg/mL
12) CC(c1ccccc1)C1NC(=O)CNC(=O)C(CO)NC(=O)C(C(O)C2CNC(=N)N2C2OC(CO)C(O)C(O)C2O)NC(=O)C(C(O)C2CNC(=N)N2)NC(=O)C(Cc2ccc(OC3OC(CO)C(OC4OC5COC6(OC5C(O)C4O)C4CCCC6CCC4)C(O)C3O)cc2)NC1=O (stereo not shown) [Example 212] :: 8 µg/mL
13) CC(c1ccccc1)C1NC(=O)CNC(=O)C(CO)NC(=O)C(C(O)C2CNC(=N)N2C2OC(CO)C(O)C(O)C2O)NC(=O)C(C(O)C2CNC(=N)N2)NC(=O)C(Cc2ccc(OC3OC(CO)C(OC4OC5COC(c6cccc(OCc7ccc([N+](=O)[O-])cc7)c6)OC5C(O)C4O)C(O)C3O)cc2)NC1=O (stereo not shown) [Example 182] :: >64 µg/mL
